As shown below, each of these molecules has a reported inhibition at 3.33 µM value.
Assayed target: hERG (Homo sapiens, UniProt Q12809)
Construct: expressed in transfected cells; host or cells: HEK293 cells stably expressing hERG
Sequence (Q12809 whole entry): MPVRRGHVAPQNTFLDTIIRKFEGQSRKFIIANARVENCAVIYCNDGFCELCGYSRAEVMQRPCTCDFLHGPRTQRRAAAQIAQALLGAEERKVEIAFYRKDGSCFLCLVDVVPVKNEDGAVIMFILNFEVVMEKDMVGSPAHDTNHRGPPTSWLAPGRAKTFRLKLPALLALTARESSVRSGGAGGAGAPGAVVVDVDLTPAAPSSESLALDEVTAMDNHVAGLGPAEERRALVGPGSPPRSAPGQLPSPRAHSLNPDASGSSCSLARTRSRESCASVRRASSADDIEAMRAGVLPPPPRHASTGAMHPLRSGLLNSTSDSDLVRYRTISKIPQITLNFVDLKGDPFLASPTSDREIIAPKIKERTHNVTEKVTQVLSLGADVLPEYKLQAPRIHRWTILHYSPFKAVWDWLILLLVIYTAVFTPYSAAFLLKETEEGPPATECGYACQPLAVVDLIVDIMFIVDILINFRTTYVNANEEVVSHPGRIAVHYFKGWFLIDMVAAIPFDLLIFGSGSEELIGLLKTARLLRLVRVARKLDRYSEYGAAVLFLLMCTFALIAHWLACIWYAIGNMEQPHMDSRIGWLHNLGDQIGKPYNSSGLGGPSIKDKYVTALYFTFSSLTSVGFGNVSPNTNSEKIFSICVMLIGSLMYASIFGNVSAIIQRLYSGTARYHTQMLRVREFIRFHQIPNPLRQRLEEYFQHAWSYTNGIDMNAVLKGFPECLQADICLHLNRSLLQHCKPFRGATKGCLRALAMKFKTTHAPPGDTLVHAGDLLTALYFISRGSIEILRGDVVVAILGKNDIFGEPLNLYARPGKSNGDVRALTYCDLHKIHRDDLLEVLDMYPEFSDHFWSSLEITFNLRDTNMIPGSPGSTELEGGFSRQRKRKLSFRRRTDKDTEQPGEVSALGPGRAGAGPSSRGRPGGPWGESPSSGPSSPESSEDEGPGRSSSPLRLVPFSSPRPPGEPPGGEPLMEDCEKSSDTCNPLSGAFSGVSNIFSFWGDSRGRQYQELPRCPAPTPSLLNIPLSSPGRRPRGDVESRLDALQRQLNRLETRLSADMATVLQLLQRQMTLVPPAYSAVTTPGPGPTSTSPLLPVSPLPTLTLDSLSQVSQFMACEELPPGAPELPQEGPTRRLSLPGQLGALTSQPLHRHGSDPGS
Assay remarks: hERG inhibition test, whole-cell patch clamp in HEK293 cells stably expressing the hERG ion channel
Type: cell-based
Run parameters: human, HEK293 cells stably expressing the hERG ion channel, 3.33 μM; read-out: Average hERG inhibition rate
State just the number; it will be interpreted in %.

>  <Molecule>
CCNC(=O)c1cc2c(-c3sc(C(C)(C)O)cc3N3CCc4ccccc43)cn(C)c(=O)c2[nH]1 [Compound 1]

>  <Unit abbrev>
%

>  <inhibition at 3.33 µM>
10.1

$$$$

Proceed to the following item.
Query (molecule): CCNC(=O)c1cc2c(-c3cc(C(C)(C)O)ccc3Oc3c(C)cc(F)cc3C)cn(C)c(=O)c2[nH]1 [ABBV-744, reference compound] ; field requested: inhibition at 3.33 µM
54.7

---

Assayed target: hERG (Homo sapiens)
Construct: expressed in transfected cells; host or cells: HEK293 cells stably expressing hERG
Assay remarks: hERG inhibition test, whole-cell patch clamp in HEK293 cells stably expressing the hERG ion channel
Type: cell-based
Run parameters: human, HEK293 cells stably expressing the hERG ion channel, 30.00 μM; read-out: hERG Inhibition rate, Cell 2
Observed property: inhibition at 30 µM
# include the unit after the value

>  <Compound>
CCNC(=O)c1cc2c(-c3sc(C(C)(C)O)cc3N3CCc4ccccc43)cn(C)c(=O)c2[nH]1 [Compound 1]

>  <inhibition at 30 µM>
58.3%

$$$$

Now consider a different compound.
Form field: reported inhibition at 30 µM of CCNC(=O)c1cc2c(-c3cc(C(C)(C)O)ccc3Oc3c(C)cc(F)cc3C)cn(C)c(=O)c2[nH]1 [ABBV-744, reference compound]
98.7%

---

Assay remarks: Pharmacokinetic test in SD rats (plasma drug concentration by LC/MS/MS)
Type: in vivo
Run parameters: rat, po, gavage, 2 mg/kg, read-out: Retention time MRT
Observed property: MRT (h)
Respond with the bare value in h.

Find the recorded MRT belonging to `CCNC(=O)c1cc2c(-c3sc(C(C)(C)O)cc3N3CCc4ccccc43)cn(C)c(=O)c2[nH]1` and report it.
1.37

---

Assayed target: hERG (Homo sapiens, UniProt Q12809)
Construct: expressed in transfected cells; host or cells: HEK293 cells stably expressing hERG
Assay remarks: hERG inhibition test, whole-cell patch clamp in HEK293 cells stably expressing the hERG ion channel
Type: cell-based
Run parameters: human, HEK293 cells stably expressing the hERG ion channel, 3.33 μM; read-out: hERG Inhibition rate, Cell 1
Experimental: An hERG current was recorded by the whole-cell patch clamp technique. A suspension of HEK293 cells stably expressing the hERG ion channel was added to a 35 mm culture dish, and the culture dish was put on a stage of an inverted microscope. […] The pulse program was repeated every 15 seconds throughout the whole test. […]
This section presents compounds with their documented inhibition at 3.33 µM values.
Unit % implied. Number only.

Looking for the measured inhibition at 3.33 µM of CCNC(=O)c1cc2c(-c3cc(C(C)(C)O)ccc3Oc3c(C)cc(F)cc3C)cn(C)c(=O)c2[nH]1 [ABBV-744, reference compound] , can you help?
57.7

Would you mind telling me what inhibition at 3.33 µM value was observed for `CCNC(=O)c1cc2c(-c3sc(C(C)(C)O)cc3N3CCc4ccccc43)cn(C)c(=O)c2[nH]1` ?
2.97

---

Assayed target: hERG (Homo sapiens, UniProt Q12809)
Construct: expressed in transfected cells; host or cells: HEK293 cells stably expressing hERG
Assay remarks: hERG inhibition test, whole-cell patch clamp in HEK293 cells stably expressing the hERG ion channel
Assay type: cell-based
Run parameters: human, HEK293 cells stably expressing the hERG ion channel, 10.00 μM; read-out: hERG Inhibition rate, Cell 1
Observed property: inhibition at 10 µM (%)
Your answer is read as %, so omit the unit and give the number.

>  <Molecule>
CCNC(=O)c1cc2c(-c3cc(C(C)(C)O)ccc3Oc3c(C)cc(F)cc3C)cn(C)c(=O)c2[nH]1 [ABBV-744, reference compound]

>  <Assayed target>
hERG (Homo sapiens, UniProt Q12809)

>  <Unit abbrev>
%

>  <inhibition at 10 µM>
87.9

$$$$

Continue with the next molecule.
Entry `CCNC(=O)c1cc2c(-c3sc(C(C)(C)O)cc3N3CCc4ccccc43)cn(C)c(=O)c2[nH]1` , system hERG (Homo sapiens, UniProt Q12809): what inhibition at 10 µM was measured?
14.6

---

Assayed target: hERG (Homo sapiens)
Construct: expressed in transfected cells; host or cells: HEK293 cells stably expressing hERG
Assay remarks: hERG inhibition test, whole-cell patch clamp in HEK293 cells stably expressing the hERG ion channel
Assay type: cell-based
Run parameters: human, HEK293 cells stably expressing the hERG ion channel, 0.37 μM; read-out: Average hERG inhibition rate
Observed property: inhibition at 0.37 µM (%)
Your answer is read as %, so omit the unit and give the number.

Would you mind telling me what inhibition at 0.37 µM value was observed for `CCNC(=O)c1cc2c(-c3sc(C(C)(C)O)cc3N3CCc4ccccc43)cn(C)c(=O)c2[nH]1` ?
3.89

Sample CCNC(=O)c1cc2c(-c3cc(C(C)(C)O)ccc3Oc3c(C)cc(F)cc3C)cn(C)c(=O)c2[nH]1 [ABBV-744, reference compound] — what was its inhibition at 0.37 µM?
5.35

---

As shown below, each of these compounds has a reported inhibition at 1.11 µM value.
Assayed target: hERG (Homo sapiens)
Construct: expressed in transfected cells; host or cells: HEK293 cells stably expressing hERG
Assay remarks: hERG inhibition test, whole-cell patch clamp in HEK293 cells stably expressing the hERG ion channel
Type: cell-based
Run parameters: human, HEK293 cells stably expressing the hERG ion channel, 1.11 μM; read-out: Average hERG inhibition rate
Method: An hERG current was recorded by the whole-cell patch clamp technique. A suspension of HEK293 cells stably expressing the hERG ion channel was added to a 35 mm culture dish, and the culture dish was put on a stage of an inverted microscope. […] The pulse program was repeated every 15 seconds throughout the whole test. […]
Quote the value and follow it with the unit of measurement.

>  <Compound>
CCNC(=O)c1cc2c(-c3sc(C(C)(C)O)cc3N3CCc4ccccc43)cn(C)c(=O)c2[nH]1 [Compound 1]

>  <Observed measurement>
4.35%

$$$$

Switching to the query record.
Using the record for CCNC(=O)c1cc2c(-c3cc(C(C)(C)O)ccc3Oc3c(C)cc(F)cc3C)cn(C)c(=O)c2[nH]1 [ABBV-744, reference compound] , report its inhibition at 1.11 µM.
17.4%

---

Assayed target: hERG (Homo sapiens)
Construct: expressed in transfected cells; host or cells: HEK293 cells stably expressing hERG
Assay remarks: hERG inhibition test, whole-cell patch clamp in HEK293 cells stably expressing the hERG ion channel
Assay type: cell-based
Run parameters: human, HEK293 cells stably expressing the hERG ion channel, 10.00 μM; read-out: hERG Inhibition rate, Cell 2
Observed property: inhibition at 10 µM (%)
Express the result in % but write the number alone.

>  <Compound>
CCNC(=O)c1cc2c(-c3sc(C(C)(C)O)cc3N3CCc4ccccc43)cn(C)c(=O)c2[nH]1

>  <Unit abbrev>
%

>  <inhibition at 10 µM>
28.6

$$$$

Report inhibition at 10 µM for CCNC(=O)c1cc2c(-c3cc(C(C)(C)O)ccc3Oc3c(C)cc(F)cc3C)cn(C)c(=O)c2[nH]1 [ABBV-744, reference compound] please.
87.3

---

Assayed target: hERG (Homo sapiens, UniProt Q12809)
Construct: expressed in transfected cells; host or cells: HEK293 cells stably expressing hERG
Assay remarks: hERG inhibition test, whole-cell patch clamp in HEK293 cells stably expressing the hERG ion channel
Format: cell-based
Run parameters: human, HEK293 cells stably expressing the hERG ion channel, 30.00 μM; read-out: hERG Inhibition rate, Cell 1
Observed property: inhibition at 30 µM (%)
Answer in %, number only, no unit symbol.

Entry under review: CCNC(=O)c1cc2c(-c3sc(C(C)(C)O)cc3N3CCc4ccccc43)cn(C)c(=O)c2[nH]1 [Compound 1] . Reported inhibition at 30 µM?
54.3

inhibition at 30 µM for CCNC(=O)c1cc2c(-c3cc(C(C)(C)O)ccc3Oc3c(C)cc(F)cc3C)cn(C)c(=O)c2[nH]1 [ABBV-744, reference compound] ?
99.4

---

Assay remarks: Pharmacokinetic test in SD rats (plasma drug concentration by LC/MS/MS)
Assay type: in vivo
Run parameters: rat, po, gavage, 2 mg/kg, read-out: Peak concentration Cmax
Observed property: Cmax (ng/mL)
Use ng/mL as the unit, but write only the number.

Any idea what its Cmax is? The compound is CCNC(=O)c1cc2c(-c3sc(C(C)(C)O)cc3N3CCc4ccccc43)cn(C)c(=O)c2[nH]1 [Compound 1]
143
